# assayed target: IL-17A/IL-17RA interaction (Homo sapiens)
# Sequence (Q16552 24-155): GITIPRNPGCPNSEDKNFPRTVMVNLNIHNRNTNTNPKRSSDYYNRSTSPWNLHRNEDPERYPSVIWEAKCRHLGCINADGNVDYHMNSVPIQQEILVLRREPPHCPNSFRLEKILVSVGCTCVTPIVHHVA
# measurement description: FRET assay of IL-17A/IL-17RA interaction
measured parameter: IC50 (nM)
Write down the numeric answer in nM and omit the unit.

Jot down IC50 (IL-17A/IL-17RA interaction (Homo sapiens)) of C#CCNC(=O)[C@@H](Cc1ccc(NC(=O)[C@H](Cc2ccccc2F)NC(=O)c2ccnn2C)cc1)NC(=O)CC1(CC(=O)Nc2cccc(S(=O)(=O)F)c2)CCCC1 [Compound 4] .
200
